Taken from paper PMC7291522.

# assaySummary: Plasma edoxaban pharmacokinetics (LC-MS/MS, noncompartmental analysis)
# conditions: male, human, in vivo, 30 mg, tmax,ss of edoxaban, Mean (SD), Group 1, n = 12; 30 mg edoxaban alone, Day 3
reportedMetric: Tmax (h)
Enter your answer as a number in h; do not include the unit.

For this compound ( CN1CCc2nc(C(=O)N[C@@H]3C[C@@H](C(=O)N(C)C)CC[C@@H]3NC(=O)C(=O)Nc3ccc(Cl)cn3)sc2C1 ), measured Tmax is 1.2

###

# assaySummary: Plasma edoxaban pharmacokinetics (LC-MS/MS, noncompartmental analysis)
# conditions: male, human, in vivo, 30 mg, Cmax,ss of edoxaban, Mean (SD), Group 2, n = 12; 30 mg edoxaban alone, Day 3
reportedMetric: Cmax (ng/mL)
Enter your answer as a number in ng/mL; do not include the unit.

For this molecule ( CN1CCc2nc(C(=O)N[C@@H]3C[C@@H](C(=O)N(C)C)CC[C@@H]3NC(=O)C(=O)Nc3ccc(Cl)cn3)sc2C1 [Edoxaban, edoxaban] ), measured Cmax is 191

###

# assaySummary: Plasma edoxaban pharmacokinetics (LC-MS/MS, noncompartmental analysis)
# conditions: male, human, in vivo, 30 mg, AUCtau,ss of edoxaban, Mean (SD), Group 2, n = 12; 30 mg edoxaban alone, Day 3
reportedMetric: AUC (ng·h/mL)
Enter your answer as a number in ng·h/mL; do not include the unit.

For this compound ( CN1CCc2nc(C(=O)N[C@@H]3C[C@@H](C(=O)N(C)C)CC[C@@H]3NC(=O)C(=O)Nc3ccc(Cl)cn3)sc2C1 ), measured AUC is 1070

###

# assaySummary: Plasma edoxaban pharmacokinetics (LC-MS/MS, noncompartmental analysis)
# conditions: male, human, in vivo, 30 mg, AUCtau,ss of edoxaban, Median (IQR), Group 2, n = 12; 30 mg edoxaban alone, Day 3
reportedMetric: AUC (ng·h/mL)
Enter your answer as a number in ng·h/mL; do not include the unit.

For this molecule ( CN1CCc2nc(C(=O)N[C@@H]3C[C@@H](C(=O)N(C)C)CC[C@@H]3NC(=O)C(=O)Nc3ccc(Cl)cn3)sc2C1 ), measured AUC is 992

###

# assaySummary: Plasma edoxaban pharmacokinetics (LC-MS/MS, noncompartmental analysis)
# conditions: male, human, in vivo, 30 mg, Cmax,ss of edoxaban, Mean (SD), Group 1, n = 12; 30 mg edoxaban alone, Day 3
reportedMetric: Cmax (ng/mL)
Enter your answer as a number in ng/mL; do not include the unit.

For this molecule ( CN1CCc2nc(C(=O)N[C@@H]3C[C@@H](C(=O)N(C)C)CC[C@@H]3NC(=O)C(=O)Nc3ccc(Cl)cn3)sc2C1 ), measured Cmax is 216
